# Test system: WT a-syn expressing HEK293 cells
# ASSAY NAME: Cell Titer-Glo cell viability, WT a-syn expressing cells;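 on cell viability effect of peptides: measured without MG132 proteasome inhibitor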
# Assay type: cell-based, human
# TEST PARAMETERS: WT alpha-synuclein; Supp Figure 1A; replicate 2
Listing: cell viability effect of peptides of selected substances
MEASUREMENT NAME: cell viability effect of peptides

{"columns": ["SUBSTANCE", "MEASUREMENT NAME", "NUMERIC VALUE"],
 "data": [
  ["IERQLKA [PDpep1.1]", "cell viability effect of peptides", 13400],
  ["DEEIERQLKALG [PDpep1.3]", "cell viability effect of peptides", 13800],
  ["IPIQLKA [PDpep1, initial screen hit peptide IPIQLKA]", "cell viability effect of peptides", 12300],
  ["EIERQLKALG [PDpep1.2]", "cell viability effect of peptides", 13400]
]}

---

Listing: Cell viability of selected substances
# Tested on: WT a-syn expressing HEK293 cells
# ASSAY NAME: Cell Titer-Glo cell viability, WT a-syn expressing cells
# Format: cell-based, human
# TEST PARAMETERS: WT alpha-synuclein, MG132 10 μM, 72 h, replicate 1
MEASUREMENT NAME: Cell viability

{"columns": ["SUBSTANCE", "NUMERIC VALUE"],
 "data": [
  ["IPIQLKA [PDpep1, initial screen hit peptide IPIQLKA]", 3500],
  ["IERQLKA [PDpep1.1]", 4800],
  ["DEEIERQLKALG [PDpep1.3]", 5800],
  ["EIERQLKALG [PDpep1.2]", 4000]
]}
